- test-system: VIPR2 (Homo sapiens)
- Sequence (P41587 24-438): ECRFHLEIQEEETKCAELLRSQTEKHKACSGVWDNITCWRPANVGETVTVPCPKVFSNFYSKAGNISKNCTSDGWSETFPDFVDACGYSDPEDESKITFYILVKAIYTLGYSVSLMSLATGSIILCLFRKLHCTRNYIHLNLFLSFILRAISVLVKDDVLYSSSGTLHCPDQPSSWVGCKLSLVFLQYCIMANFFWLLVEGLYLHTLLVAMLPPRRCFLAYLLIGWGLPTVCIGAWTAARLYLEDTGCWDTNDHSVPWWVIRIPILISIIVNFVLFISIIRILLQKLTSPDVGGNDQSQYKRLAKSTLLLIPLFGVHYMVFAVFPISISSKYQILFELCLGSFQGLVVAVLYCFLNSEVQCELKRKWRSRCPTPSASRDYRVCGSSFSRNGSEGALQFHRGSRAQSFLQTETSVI
- assay-procedure: Inhibition of VIP-induced cAMP elevation (% Activity cAMP)
- Format: cell-based
- Design: expressed in transfected cells; host or cells: HEK293 cells transfected with VIPR2 in pCDNA3.1 (as described)
- setup-conditions: 1 μM, Batch 1
test-readout: inhibition at 1 µM
Don't forget the unit after the value.

Endpoint output: inhibition at 1 µM of O=C(NC[C@@H](O)C[C@@H](Cc1ccccc1)C(=O)N[C@H]1c2ccccc2C[C@H]1O)c1ccc2ccccc2c1 [B] . Value?
16.3%

Also check O=C(N[C@H]1c2ccccc2C[C@H]1O)[C@H](Cc1ccccc1)C[C@H](O)CNS(=O)(=O)c1ccc([N+](=O)[O-])cc1 [Compound A27, reference compound]
71.3%

Also check CC(C)c1cc(C(C)C)c(S(=O)(=O)NC[C@@H](O)C[C@@H](Cc2ccccc2)C(=O)N[C@H]2c3ccccc3C[C@H]2O)c(C(C)C)c1 [J]
18.6%
